assay: yeast display, Sf9 membrane polyspecificity reagent, FACS + sequencing; frameworks hold sequencing errors
OBSERVABLE: polyreactivity (PSR sort gate)

Solved entries (count: 5):
QVQLVESGGGLVQAGGSLRLSCAASGRTSKGNTMGWYRQAPGKEREFVATISRSGGSTYYADSVKGRFTISRDNAKNTVYLQMNSLKPEDTAVYYCAARISRQRSYSRDYWGQGTQVTVSS    high polyreactivity
QVQLVESGGGLVQAGGSLRLSCAASGITLGTNAMGWYRQAPGKERELVAAIRRSGGSTYYADSVKGRFTISRDNAKNTVYLQMNSLKPEDTAVYYCAAVVSVNMYWGQGTQVTVSS    low polyreactivity
QVQLVESGGGLVQAGGSLRLSCAASGSTFPTNAMGWYRQAPGKERELVADINGNGGRTYYADSVKGRFTISRDNAKNTVYLQMNSLKPEDTAVYYCAVEPDVYPSWYYYVDYDYWGQGTQVTVSS    low polyreactivity
QVQLVESGGGIVQAGGSLRLSCAASGFTFYYKAMGWYRQAPGKERELVAAISRGGRTNYADSVKGRFTISRDNAKNTVYLEMNSLTPADTAVYYCAADRYNGVYAVYYYGYDYWGQGTKVTVSS    high polyreactivity
QVQLVESGGGLVQAGGSLRLSCAASGLIFLDYAMGWNRQAPWKERELVAAITGRGGSTYYADSVKGRFTISRDNAKNTVYLQMNSLKPDDTAVYDCAAQYSYPTPYRTYEYDYWGQGTQVTVSS    high polyreactivity

Hi team, please reply with polyreactivity (PSR sort gate) for each item in this list.
1. QVQLVESGGGLVQAGGSLRLSCAASGFTFKYYAMGWYRQAPGKERELVARISWSGGSTYYADSVKGRFTISRDNAKNTFFLQMNSLKPEDTAVYYCNTDFGYGFDYWGQGTQVSVSS
2. QVQLVESGGGLVQAGGSLRLSCDASGSISIGYTMGWYRQAPGKERELVATISWSGGNTYYADSVKGRFTISRDNAKNTVYLQMNSLKPEDTAVYYCAARWYYYPLLYDYWGQGTQVTVSS
3. QVQLVESGGGLVQAGGSLRLSCAASGFTFAPNAMGWYRQAPGKEMELVAAISSASSTYYADSVKGRFTISRDNAKNTVYLQMNSLKPEDTAVYYCAARVFKKYRPSGRYYYWGQGSQVTVSS

Result ::
["high polyreactivity", "low polyreactivity", "high polyreactivity"]

// each listed sequence needs a value for polyreactivity (PSR sort gate)
1. QVQLVESGGGLVQAGGSLRLSCAASGLTFGNYAMGSYRQAPGKERELVAAITSGGSTYYADSVKGRFTISRDNAKNTVYLQMNSLKPEDTAVYYCAKRQSQHYRSYLMDYWGQGTQVTVSS
2. QDQLVESRGGIVQAGGSLRLSCAASGSTFRLYAMGWYRQAPGKERELVAAISSGGTTKYADSVKGRFTNSRDNAKNTVYLQMNSLTPEDTAVYYCNAVYHWGNPGEYATLPRYDYWGQGTQVNVSS
3. QVQLVESGGGLVQAGGSLRLSCAASGLTFGTYAMGWYRPAPGKERELVAAIRSGGSTNYADSVKGRFTISRDNAKNTVYLQMNSLKPEDTAVYYCAKRYYWDRYYYWGQGTQVTVSS

Result ::
1: low polyreactivity; 2: high polyreactivity; 3: high polyreactivity

====

assay: yeast display, Sf9 membrane polyspecificity reagent, FACS + sequencing; frameworks hold sequencing errors
OBSERVABLE: polyreactivity (PSR sort gate)

Answered cases to consult:
QVQLVESGGGLVQAGGSLRLSCAASGSNFLYNAMGWYRQAPGKERELVAAITQGGGSTYYADSVKGRFTISLDIAKNTVYLQMISLKPEDTAVYYCNKASFYDAHRLDYWGQGTQVTVSS    high polyreactivity
QVQLVESGGGLVQAGGSLRLSCAASGRTFAGYAMGWYRQAPGKERELVAAISTRGGSTYYADSVKGRFTISRDNAKNTVYLQMNSLKPEDTAVYYCAATKPKFYQFDYWGQGTQVTVSS    high polyreactivity
QVQLEESAGGLVQAGGSLRLSCAASGYTFGRYAMGWYRQEPGKERELVAVITTGDSTYYADSVKGRFTISRDNAKNTVNLLMNSLKPEDTAVYYCAADGRLSRPFDYWGQGTQVTVSS    low polyreactivity
QVQLVESGGGLLQAGGSLRLSCAASGRIYWNDMAWYRQAPGKERELVAAISWGGDRTYYADSVKGRFTISRDNAKNTVYLQMNSLKPEDTAVYYCNAPGYLTYDHSYDYWGQGTQVTVSS    low polyreactivity
QVQLVESGGGLVQAGGSLRLSCAASGRTFSYYAMGWYRPAPGKEREFVAAISSTGTSTYYADSVKGRFTISRDNAKNTVYLQMNSLKPEDTAVYYCNARVATYRLHSKFYYWGQGTQVTVSS    high polyreactivity

Provide polyreactivity (PSR sort gate) for all items below, preserving their order.
1. QVQLVESCGCLVQAVGSLRLSCAASGRIFGWYAMGWDRQAPVKERELVAAISSARRTYYADSVKGRFTISRDNAKNSVYLQMNSLKPEDTAVSYCAAYYYNDRMYYWGQGNQVTVSS
2. QVQLVESGGGLVQAGGSLRLSCAASGRIFQLYAMGWYRLAPGKERELVAVISSGDRTYYADSVKGRFTISRDNAKNTVYLQMNSLKPEDTAVYYCAALGWHSGGSRWHGEYDYWGQGTQVTVSS
3. QVQLVESGGGLVQAGGSLRLSCAASGSIFAVYAMGWYRQAPGKERELVAAISVSGGRTYYADSVKGRFTISRDNAKNTVYLQMNSLKPEDTAVYYCAARSLSYYRSRAAQYGWGYYYWGQGTQVTVSS
4. QVQLVESGGGLVQAGGSLRLSCAAAGFIFWSNAMGWYRQAPGKERELVAAIRNTGSTNYADSVKGRFTISRDNAKNTVYLQMNSLKPEDTAVYYCATKPYPYYLYYYWGQGTQVTVSS
5. QVQLVESGGVLVQAGGSLRLSCAASGLIFPSYALGWYRQAPGKERELVAAITFSGSDTNYADSVKGRFTISRDNAKNTVSLQMKSLKPEDTAVYYCAAAYFDFWGWLHDYWGQGTQVTVSS
6. QVQLVESGGGLVQAGGSLRLSCAASGSTFSFNAMGWYRQAPGKERELVAAISYSDSTTYYADSVKGRFTISRDNAKNTVYLQMNSLKPEDTAVYYCAAETGPYYRFGGDYWGQGTQVTVSS

Result ::
["high polyreactivity", "low polyreactivity", "high polyreactivity", "high polyreactivity", "low polyreactivity", "high polyreactivity"]

====

experiment: yeast display, Sf9 membrane polyspecificity reagent, FACS + sequencing; frameworks hold sequencing errors
OBSERVABLE: polyreactivity (PSR sort gate)

QVQLVESGGVLVQAGGSLRLSCAASGFTFLVYAMGWYRQAPGKERELLAAITSGSSTTYADSVKGRFTISRDNAKNTVYLQMNSLKPEDTAVYYCAARPRLDVLVKRFYYWGQGTQVTVSS    high polyreactivity
QVQLVESGGGLVQAGGSLRLSCAASGSTFEYYAMGWYRQAPGKERELVAAITRRGGSTYYADSVKGRFTISRDNAKNTVYLQMNSLKPEDTAVYYCAAVPTQKSPRTHDYWGQGTQVTVSS    low polyreactivity
QVQLVESGGGIVQAGGSLRLSCAASGITFPLYVMGWYRQAPGKERELVAAISASGGSTYADSVKGRFTISRDNAKNTVYLQMNSLKPEDTAVYYCNADVYVGYDYDYWGQGTQVTVSS    low polyreactivity
QVQLVESGGGLVQAGGSLRLSCAASGSTFKGYAMGWYRQAPGKERELVAAISSRTGSTYYADSVKGRFTISRDNAKNTVYLQMNSLKPEDTAVYYCAAPWFRDTRGYSLYDYWGQGTQVTVSS    high polyreactivity
QVQLVESGGGLVQAGGSLRLSCAASGSTFCRNAMGWYRQAPGKEREFVAVISISSGTTYADSVKGRFTISRDNAKNTVYLQMNSMKPEDTAVYYCAAAIGVYYIDYRYLGTVEYWGQGTQGTVSS    low polyreactivity

Provide each entry's polyreactivity (PSR sort gate) from the list below.
1. QVQIVESGGGLVQAGGSLRLSCAASGRIFFQYALGWYRQAPGKERELVAAIRYSGGSTYYADSVKGRFTISRDNAKNTVYLQMNSLKPEDTAVYYCAARYTRRHYDYWGQGTQVTVSS
2. QVQLVESGGGLVQAGGSLRLSCAASGRIFTPYAMGWYRQAPGKERELVAAISSSGGSTYYADSVKGRFTISRDNAKNTVYLQMNSLKPEDTAVYYCAAVHYRHVRYDYWGQATQVTVSS
3. QVQLVESGGGLVQAGGSLRLSCAASGFIFTNVMGWYRQAPGKERELVAAISGRGTSTYYADSVKGRFTISRDNAKNTVYLQMNSLKPEDTAVYYCAAYFTSRLDYWGQGTQVTVSS
4. QVQIVESCGALVQAGRSLSLSCAASGSTFWDNVMGSYRQAPGKERELVAASTSGGSTNYADSVKGRFTISRDNAMNTDYLQLNSLIPEDTAVYYCAAGWYLYVLPYRYYYWRQGTQVTVSS
5. QVQLVESGGGLVQAGGSLRLSCAASGSIFGGYTMGWYRQAPGKERELVAAISRRGGNTYYADSVKGRFTISRDNAKNTVYLQMNSLKPEDTAVYYCAVRWPSARIPVKLDYWGQGTQVTVSS
6. QVQLVESGGGLVQAGGSLRLSCAASGLTLSGNAMGWYRQAPGKETELVAAITGRGGSTTYADSVKGRFTISRDNAKTTVYLQMNSLKPEDTAVYYCAADHAWYSLFDYWGQGTQVTVSS
7. QVQLVESGGGLVQAGGSLRLSCAASGRIFIYYAMGWYRQAPGKERELVAAISWGGGRTYYADSVKGRFTLSRYNAKNTVYLQMNSLKPEDTAVYYCAAGVYTGQNEYDYWGQGTQVTVSS
8. QVQLVESGGGLVQAGGSLRLSCAASGRTFYRNAMGWYRQAPGKERELVASIRRNGGSTYYADSVKGRFTISRDNAKNTVYLQMNSLKPEDTAVYYCAARSTRRRIYGYWGQGSQVTVSS

Result ::
1. high polyreactivity
2. high polyreactivity
3. high polyreactivity
4. low polyreactivity
5. high polyreactivity
6. low polyreactivity
7. low polyreactivity
8. high polyreactivity

Okay, here is my list. What is polyreactivity (PSR sort gate) for each of these?
1. QVQLVESGVGLVQAGGSLRLSCAASGRIFERYAMGWYRQAPGKERELVAAIRSGGSTKYADSVKGRFTISRGNAKNTVYLQMNSLKPEDTAVYYCAAVIHYGDGYWGQGTQVTVSS
2. QVQLVESGGGLVQAGGSLRLSCAASGLIFYWNAMGWYRQAPGKERELVAGITSGGDTNYADSVKGRFTISRDNAKNTVYLQMNSLKPEDTAVYDCAAEGFRGYGYWGQGTQVTVSS

Result ::
["low polyreactivity", "low polyreactivity"]

For each of the items listed, what is its polyreactivity (PSR sort gate)?
1. QVQLVESGGGLVQAGGSLRLSCAASGSTFAANAMGWYRPAPGKERELVAAITSSGGSTYYADSVKGRFTISRDNAKNTVYLQMNSLKPEDTAVYYCNKDIERYVRIYDSWGQGTQVTVSS
2. QVQLVESGGGLVQAGGTLRLSCAASGSTFWRNTMEWYRQAPGKERELVAAITGCGGRTYYADSVKGRFTISRDNAKNTVYLQMNSLKPEDTAVYYCAADGRGVHYDYWGQGSQVTVSS
3. QVQLVESGGGLVQAGGSLRLSCAASGRSFSGYAMGWYRQAPGKERDLVAAITSSGGRTYYADSVKGRFTISRDNAKNTVYVQMNSLKPEETAVYYSAAMRPGYRPQGLDYWGQGTQVTVSS
4. QVQLVESGGGLVQAGGSLRLSCAASGRTFDGNAMGWYRQAPGKERELVAAISKRGGTTYYADSVKGRFTISRDKAKNTVYLQMTSLKPEDTAVYYCAAPYNTYSYSEGEYWGQGTQVTVST
5. QVQLGESGGGLVQAGGSLSLSCAASGNTFVSNAMGWYRQATGKERELVATISSGAHTYYADSVKGRFTISRDNAKNTVYLQMKSLKPEDTAVYYCASTSYGYWVGYIPEVDFWGQGTQVSVSS

Result ::
["low polyreactivity", "high polyreactivity", "low polyreactivity", "low polyreactivity", "low polyreactivity"]

Query :: Returns the measured polyreactivity (PSR sort gate) for the input sequence. Input: QVQLVQSGGGLVQAGGSLRLSCAASGSTFWMNAMGWYRQAPGKEREFVAAITVRGGSTYYADSVKGRFTISRDNAKNTVYLQMNSLKPEDTAVYYCNRPSSLAWPWTGSFSRYDYWGQGTQVTVSS
Result :: low polyreactivity
